test: cells; details: Homo sapiens, MCF7:5C, 168 h, read-out: pIC50 (converted)
Description: Antiproliferative activity against human MCF7:5C cells assessed as reduction in cell viability incubated for 7 days by Hoechst 33258 dye based assay

SMILES_STR: O=C(c1ccccc1)c1sc2cc(O)ccc2c1Oc1ccc(OC2CN(CCCF)C2)cc1
IC50 (nM): 0.162
//
SMILES_STR: Cc1ccc(C(=O)c2sc3cc(O)ccc3c2Oc2ccc(OCCN3CC(CF)C3)cc2)c(C)c1
IC50 (nM): 0.38
//
SMILES_STR: Cc1cc(F)ccc1C(=O)c1sc2cc(O)ccc2c1Oc1ccc(OCCN2CC(CF)C2)cc1
IC50 (nM): 0.363
//
SMILES_STR: O=C(c1cccc(F)c1)c1sc2cc(O)ccc2c1Oc1ccc(OCCN2CC(CF)C2)cc1
IC50 (nM): 0.295
//
SMILES_STR: Cc1cc(F)cc(C)c1C(=O)c1sc2cc(O)ccc2c1Oc1ccc(OCCN2CC[C@@H](CF)C2)cc1
IC50 (nM): 1.07
//
SMILES_STR: O=C(c1cccc(F)c1)c1sc2cc(O)ccc2c1Oc1ccc(OC2CN(CCCF)C2)cc1
IC50 (nM): 0.182
//
SMILES_STR: Cc1ccccc1C(=O)c1sc2cc(O)ccc2c1Oc1ccc(OCCN2CCC2)cc1
IC50 (nM): 1.29
//
SMILES_STR: O=C(c1ccc(F)cc1)c1sc2cc(O)ccc2c1Oc1ccc(OCCN2CC(CF)C2)cc1
IC50 (nM): 0.447
//
SMILES_STR: Cc1ccccc1C(=O)c1sc2cc(O)ccc2c1Oc1ccc(OC2CN(CCCF)C2)cc1
IC50 (nM): 2.82
//
SMILES_STR: Cc1ccccc1C(=O)c1sc2cc(O)ccc2c1Oc1ccc(OCCN2CC[C@@H](CF)C2)cc1
IC50 (nM): 0.0871
//
SMILES_STR: Cc1cc(F)cc(C)c1C(=O)c1sc2cc(O)ccc2c1Oc1ccc(OC2CN(CCCF)C2)cc1
IC50 (nM): 0.347
//
SMILES_STR: Cc1cc(F)ccc1C(=O)c1sc2cc(O)ccc2c1Oc1ccc(OC2CN(CCCF)C2)cc1
IC50 (nM): 0.117
//
SMILES_STR: O=C(c1ccccc1)c1sc2cc(O)ccc2c1Oc1ccc(OCCN2CC(CF)C2)cc1
IC50 (nM): 0.263
//
SMILES_STR: Cc1ccccc1C(=O)c1sc2cc(O)ccc2c1Oc1ccc(OCCN2CC(C)C2)cc1
IC50 (nM): 0.263

* * *

Each entry below carries its reported Efficacy.
target: Estrogen receptor (Homo sapiens); test: Inhibition of ERalpha in human MCF7:WS8 cells assessed as increase in degradation of ERalpha incubated for 24 hrs by In-Cell Western assay relative to control; type: cell-based

SMILES_STR: Cc1cc(O)ccc1C(=O)c1sc2cc(O)ccc2c1Oc1ccc(OCCN2CC(CF)C2)cc1
Efficacy / %: 90

SMILES_STR: Cc1cc(F)cc(C)c1C(=O)c1sc2cc(O)ccc2c1Oc1ccc(OC2CN(C3CC3)C2)cc1
Efficacy / %: 51

SMILES_STR: Cc1cc(F)cc(C)c1C(=O)c1sc2cc(O)ccc2c1Oc1ccc(OCCN2CC[C@H](CF)C2)cc1
Efficacy / %: 42

SMILES_STR: O=C(c1ccccc1)c1sc2cc(O)ccc2c1Oc1ccc(OCCN2CC(CF)C2)cc1
Efficacy / %: 85

* * *

Each entry below carries its reported pIC50.
Target: Estrogen receptor (Homo sapiens, UniProt P03372)
Sequence (P03372 whole entry): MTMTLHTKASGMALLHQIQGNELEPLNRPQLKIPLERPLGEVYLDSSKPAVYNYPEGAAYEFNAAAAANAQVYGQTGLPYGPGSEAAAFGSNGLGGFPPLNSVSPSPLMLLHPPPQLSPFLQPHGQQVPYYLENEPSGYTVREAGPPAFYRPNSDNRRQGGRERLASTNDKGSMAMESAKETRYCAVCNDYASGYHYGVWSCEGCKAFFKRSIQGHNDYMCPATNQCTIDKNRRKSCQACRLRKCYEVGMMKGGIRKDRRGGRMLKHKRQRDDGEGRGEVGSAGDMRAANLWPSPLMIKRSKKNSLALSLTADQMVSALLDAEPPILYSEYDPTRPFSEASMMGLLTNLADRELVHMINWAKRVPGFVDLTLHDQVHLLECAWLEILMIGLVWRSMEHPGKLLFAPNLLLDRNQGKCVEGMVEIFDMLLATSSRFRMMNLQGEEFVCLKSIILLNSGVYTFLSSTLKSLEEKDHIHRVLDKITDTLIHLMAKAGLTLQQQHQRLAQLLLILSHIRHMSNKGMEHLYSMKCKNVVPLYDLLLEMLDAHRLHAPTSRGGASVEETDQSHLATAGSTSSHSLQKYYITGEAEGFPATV
Experiment: Inhibition of ERalpha in human MCF7:WS8 cells assessed as increase in degradation of ERalpha incubated for 24 hrs by In-Cell Western assay
Assay type: cell-based
pIC50: −log10 of the molar value.

SMILES_STR: Cc1cc(F)ccc1C(=O)c1sc2cc(O)ccc2c1Oc1ccc(OCCN2CC(CF)C2)cc1
pIC50: 8.44

SMILES_STR: Cc1cc(F)cc(C)c1C(=O)c1sc2cc(O)ccc2c1Oc1ccc(OCCN2CC(CF)C2)cc1
pIC50: 8.85

SMILES_STR: Cc1ccccc1C(=O)c1sc2cc(O)ccc2c1Oc1ccc(OCCN2CC(CF)C2)cc1
pIC50: 9.02

SMILES_STR: Cc1cc(F)cc(C)c1C(=O)c1sc2cc(O)ccc2c1Oc1ccc(OC2CN(C3CC3)C2)cc1
pIC50: 8.23

* * *

test: Cmax in C57BL/6 mouse at 5 mg/kg, iv measured upto 24 hrs by LC-MS/MS analysis; format: ADME, organism-based; design: dose 5 mg/kg, route intravenous; settings: in vivo
VALUE_KIND: Cmax (ng/mL)

SMILES_STR: Cc1cc(F)cc(C)c1C(=O)c1sc2cc(O)ccc2c1Oc1ccc(OC2CN(CCCF)C2)cc1
UNIT_ABBREV: ng/mL
TEST_VALUE: 1590

* * *

Each entry below carries its reported Efficacy.
Molecular target: Estrogen receptor (Homo sapiens) (UniProt P03372)
Sequence (whole entry): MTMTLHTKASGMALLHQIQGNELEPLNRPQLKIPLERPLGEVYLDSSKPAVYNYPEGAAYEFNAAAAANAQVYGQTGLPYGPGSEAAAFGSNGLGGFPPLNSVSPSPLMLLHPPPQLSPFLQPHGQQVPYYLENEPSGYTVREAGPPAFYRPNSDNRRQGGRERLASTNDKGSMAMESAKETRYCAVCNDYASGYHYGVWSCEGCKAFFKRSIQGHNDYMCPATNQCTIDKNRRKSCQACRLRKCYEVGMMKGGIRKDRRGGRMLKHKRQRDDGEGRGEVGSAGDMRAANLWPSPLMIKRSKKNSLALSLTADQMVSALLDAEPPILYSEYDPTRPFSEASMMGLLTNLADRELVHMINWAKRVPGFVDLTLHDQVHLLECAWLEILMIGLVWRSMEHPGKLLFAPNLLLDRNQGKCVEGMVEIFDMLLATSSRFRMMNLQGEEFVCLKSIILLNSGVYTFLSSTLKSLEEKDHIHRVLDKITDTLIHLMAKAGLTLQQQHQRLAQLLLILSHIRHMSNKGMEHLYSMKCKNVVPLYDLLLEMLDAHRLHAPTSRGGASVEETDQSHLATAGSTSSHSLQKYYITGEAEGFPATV
Experiment: Inhibition of ERalpha in human MCF7:WS8 cells assessed as increase in degradation of ERalpha incubated for 24 hrs by In-Cell Western assay relative to control
Format: cell-based
VALUE_KIND: Efficacy (%)

SMILES_STR: Cc1ccccc1C(=O)c1sc2cc(O)ccc2c1Oc1ccc(OC2CN(CCCF)C2)cc1
TEST_VALUE: 82

SMILES_STR: Cc1cc(F)cc(C)c1C(=O)c1sc2cc(O)ccc2c1Oc1ccc(OCCN2CC(CF)C2)cc1
TEST_VALUE: 85

SMILES_STR: O=C(c1ccc(F)cc1)c1sc2cc(O)ccc2c1Oc1ccc(OCCN2CC(CF)C2)cc1
TEST_VALUE: 89

SMILES_STR: Cc1ccccc1C(=O)c1sc2cc(O)ccc2c1Oc1ccc(OCCN2CC[C@@H](CF)C2)cc1
TEST_VALUE: 84

SMILES_STR: O=C(c1ccc(O)cc1)c1sc2cc(O)ccc2c1Oc1ccc(OCCN2CC(CF)C2)cc1
TEST_VALUE: 47

SMILES_STR: Cc1cc(F)cc(C)c1C(=O)c1sc2cc(O)ccc2c1Oc1ccc(OCCN2CC[C@@H](CF)C2)cc1
TEST_VALUE: 84

SMILES_STR: Cc1ccc(C(=O)c2sc3cc(O)ccc3c2Oc2ccc(OCCN3CC(CF)C3)cc2)c(C)c1
TEST_VALUE: 83

SMILES_STR: Cc1ccccc1C(=O)c1sc2cc(O)ccc2c1Oc1ccc(OCCN2CC(C)C2)cc1
TEST_VALUE: 81

SMILES_STR: Cc1cc(F)cc(C)c1C(=O)c1sc2cc(O)ccc2c1Oc1ccc(OC2CN(CCCF)C2)cc1
TEST_VALUE: 92
